- TARGET_UNDER_TEST: T1, GPR10 (UniProt P49683 1-370, limits assumed)
- T1 sequence (looked up): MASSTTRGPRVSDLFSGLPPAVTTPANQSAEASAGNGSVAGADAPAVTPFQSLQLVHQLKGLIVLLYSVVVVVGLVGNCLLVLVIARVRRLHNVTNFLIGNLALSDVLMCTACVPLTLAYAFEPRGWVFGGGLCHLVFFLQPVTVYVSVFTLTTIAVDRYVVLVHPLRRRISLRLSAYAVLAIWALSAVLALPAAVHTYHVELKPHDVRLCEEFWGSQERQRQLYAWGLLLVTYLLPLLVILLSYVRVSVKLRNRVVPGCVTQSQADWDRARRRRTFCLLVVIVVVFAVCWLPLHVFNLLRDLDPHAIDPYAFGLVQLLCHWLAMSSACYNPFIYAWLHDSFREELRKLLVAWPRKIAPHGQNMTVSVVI
- METHOD_SUMMARY: cell-based or functional assay
Bridges are numbered along the chain shown (N, C = ends). Where no end group is shown, it is not given here. [ ]: non-standard residue; d: D form. hArg = N=C(N)NCCCC[C@H](N)C(=O)O; Nle = CCCC[C@H](N)C(=O)O; L12 = not defined here; L1 = not defined here; L3 = not defined here; L4 = not defined here; L5 = not defined here; L6 = not defined here; L7 = not defined here; L8 = not defined here; L9 = not defined here
Please respond with reported GPR10 EC50 0% FBS for every item in the list.
// note: answer is a bare numeric in nM

Req: // lookup GPR10 EC50 0% FBS for SRAHQCS[Nle]ETRTCDINPAWYTG[hArg]GIRPVGRF-NH2 (linker 6-13 via L12; reading uncertain) [Conjugate 269]
Resp: 10

Req: Continue with SRAHQCS[Nle]ETRTCDINPAWYTG[hArg]GIRPVGRF-NH2 (linker 6-13 via L7; reading uncertain) [Conjugate 271]
Resp: 9

Req: Continue with SRAHQCS[Nle]ETRTCDINPAWYTG[hArg]GIRPVGRF-NH2 (linker 6-13 via L1; reading uncertain) [Conjugate 251]
Resp: 5.9

Req: Continue with SRAHQCS[Nle]ETRTCDINPAWYTG[hArg]GIRPVGRF-NH2 (linker 6-13 via L9; reading uncertain) [Conjugate 268]
Resp: 8.2

Req: Continue with SRAHQCS[Nle]ETRTCDINPAWYTG[hArg]GIRPVGRF-NH2 (linker 6-13 via L5; reading uncertain) [Conjugate 263]
Resp: 7.8

Req: Continue with SRAHQCS[Nle]ETRTCDINPAWYTG[hArg]GIRPVGRF-NH2 (linker 6-13 via L6; reading uncertain) [Conjugate 270]
Resp: 12

Req: Continue with SRAHQCS[Nle]ETRTCDINPAWYTG[hArg]GIRPVGRF-NH2 (linker 6-13 via L8; reading uncertain) [Conjugate 267]
Resp: 24

Req: Continue with SRAHQCS[Nle]ETRTCDINPAWYTG[hArg]GIRPVGRF-NH2 (linker 6-13 via L3; reading uncertain) [Conjugate 255]
Resp: 8

Req: Continue with SRAHQCS[Nle]ETRTCDINPAWYTG[hArg]GIRPVGRF-NH2 (linker 6-13 via L4; reading uncertain) [Conjugate 259]
Resp: 12
